Where do the numbers come from? From the RepoRT retention time repository (doi:10.1016/j.chroma.2019.01.023).

Here the recorded LC retention time is given for each entry.
test-method-notes: HILIC, Waters ACQUITY UPLC BEH Amide, 150 × 2.1 mm, 1.7 µm, 40 °C, 0.5 mL/min, estimated dead time 0.66 min; A: 5% water + 95% acetonitrile; B: 70% water + 30% acetonitrile + 10 mM ammonium formate, pH 6.5; gradient (min/%B) 0/0 2/0 20/70 23/70 24/0 31/0
test-context: stereoisomer not certain
Express your answer as a number followed by its unit.

Nc1cc(C(=O)O)ccc1[O-] [3-AMINO-4-HYDROXYBENZOATE] | 1.84 min
CC(=O)NC(CC(N)=O)C(=O)O (stereo not given) | 8.1 min

Read the entry Nc1cc([O-])cc(C(=O)O)c1 [3-AMINO-5-HYDROXYBENZOATE] and write its reported LC retention time. 2.31 min

Read the entry Cc1cn(C2CC(O)C(CO)O2)c(=O)[nH]c1=O (stereo not given) and write its reported LC retention time. 1.97 min

Read the entry CSCC[C@H](NC=O)C(=O)O and write its reported LC retention time. 2.24 min
